molecules and their reported activation factor
test system: Mannose-6-phosphate isomerase (Homo sapiens)
assay overview: MPI enzyme activity enhancement – biochemical, fluorescence intensity, near-Km mannose 6-phosphate, primary screen (AID 1214)
setup conditions: purified human PMI, coupled resazurin fluorescence, 20 min; at 20 µM; active compounds read high; 1 = vehicle control, 0 substrate-free wells
In all, about 190,000 compounds went through this assay and about 10 (0.005%) were called active. A selection follows.
Respond numerically, and do not add a unit to the figure.

Check out these entries, answers already filled in.
> print(dat)
                                   molecule  experimental.value
1   CCOc1ccc2nc(NCCNC(=O)C(C)(C)C)c(C)cc2c1                   1
2    CCOC(=O)c1ccccc1NC(=S)N1CCC(C(N)=O)CC1                   1
3  Cn1c(=O)c2cc(S(=O)(=O)NCCC(=O)Nc3ccc(F)cc3F)ccc2n(C)c1=O                   1

Suppose we examine the molecule Cc1ccc(NC(=O)CC(=O)Nc2ccc(C)cc2)cc1 ; what activation factor value has been reported? 1

Entry under review: NS(=O)(=O)c1ccc(NC(=S)NC(=O)c2cccnc2)cc1 . Reported activation factor? 1

Would you kindly share the measured activation factor for O=C(Cc1ccccc1)NNC1CC(=O)N(c2ccc(Br)cc2)C1=O (stereo not given) ? 0.9

Requested read-out: activation factor. Entry: O=C(CN1C(=O)CC(c2ccccc2)S(=O)(=O)c2ccccc21)NC1CCCC1 (stereo not given) 1.1

Bench note: what activation factor did OCC(CO)(CO)NCc1ccc(-c2ccccc2)cc1 show? 1

Sample Nc1nc(NC(=O)/C=C/c2ccccc2)nn1-c1ccccc1 — what was its activation factor? 1

Suppose we examine the molecule CN(CC(=O)NCCc1ccccn1)S(=O)(=O)c1ccc(Cl)cc1 ; what activation factor value has been reported? 0.9

Could you tell me which activation factor is on file for COc1ccc(/C=C(\NC(=O)c2ccc(OCC(C)C)cc2)C(=O)OCc2ccco2)cc1 ? 0.9

----------
Measured activation factor of individual entries
test system: Mannose-6-phosphate isomerase (Homo sapiens)
assay overview: MPI enzyme activity enhancement – biochemical, fluorescence intensity, near-Km mannose 6-phosphate, primary screen (AID 1214)
setup conditions: purified human PMI, coupled resazurin fluorescence, 20 min; at 20 µM; active compounds read high; 1 = vehicle control, 0 substrate-free wells
The whole screen tested about 190,000 compounds, of which about 10 (0.005%) were called active. Not all results are given here.
Write the value as a bare number.

Consider the following illustrative entries.
> print(dat)
                                   compound     assay.endpoint  experimental.value
1  COC(=O)C(=Nc1ccccc1)/C(C(=O)C(=O)N(C)c1ccccc1)=C(\O)c1ccc(Cl)cc1  activation factor                 1.2
2  Cc1cc(-c2n[nH]c(=S)n2-c2ccc(C)c(C)c2)no1  activation factor                   1
3   Cn1c(CNC(=O)c2ccccc2F)nnc1SCc1ccc(F)cc1  activation factor                 1.2
4                CCc1cccc(NC(=O)CCC(=O)O)c1  activation factor                   1
5       CCOC(=O)c1sc2nc(C)nc(SCC(N)=O)c2c1C  activation factor                 1.1
6  CCNC(=O)CC1C(=O)N(c2ccc(F)cc2)C(=O)N1CCc1sccc1C (stereo unspecified)  activation factor                 1.1
7       Cc1ccc2nc(-c3cccnc3)c(NC3CCCC3)n2c1  activation factor                 0.9
8  CCC(C)(C)NC(=O)CN(Cc1cccs1)C(=O)CNS(=O)(=O)c1ccc(F)cc1  activation factor                 1.1

Which measured activation factor value corresponds to C=CCN1C2CCCC1CC(NC(=S)Nc1cccc(OC)c1)C2 (stereo unspecified) ? 0.9

Look at this compound and give its reported activation factor. CC(C)(C)C1CCC(=NNC(=O)c2cc(-c3ccccc3)n[nH]2)CC1 (stereo unspecified) 1

Please give the measured activation factor for this compound: COc1ccc2c(c1)c(=O)c(C(=O)c1ccc(Cl)cc1)cn2CC(=O)Nc1ccc(F)cc1 1

Query (compound): COc1ccc(Br)cc1CN(C)CC(=O)Nc1cc(Cl)cc(Cl)c1 ; field requested: activation factor 0.8

----------
test system: Mannose-6-phosphate isomerase (Homo sapiens) (UniProt P34949)
Sequence (P34949 whole entry, looked up): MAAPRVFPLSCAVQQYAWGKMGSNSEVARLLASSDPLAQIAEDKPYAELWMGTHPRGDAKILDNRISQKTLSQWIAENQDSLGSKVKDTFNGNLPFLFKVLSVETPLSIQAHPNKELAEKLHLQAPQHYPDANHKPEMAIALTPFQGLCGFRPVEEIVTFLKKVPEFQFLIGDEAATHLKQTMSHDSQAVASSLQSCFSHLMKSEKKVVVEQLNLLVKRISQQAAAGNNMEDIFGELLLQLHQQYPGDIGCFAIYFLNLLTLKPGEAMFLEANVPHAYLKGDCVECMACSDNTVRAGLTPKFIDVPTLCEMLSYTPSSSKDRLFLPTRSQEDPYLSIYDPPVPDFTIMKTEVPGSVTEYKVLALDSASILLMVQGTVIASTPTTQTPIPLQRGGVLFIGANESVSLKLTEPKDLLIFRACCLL
assay overview: MPI enzyme activity enhancement – biochemical, fluorescence intensity, near-Km mannose 6-phosphate, primary screen (AID 1214)
setup conditions: purified human PMI, coupled resazurin fluorescence, 20 min; at 20 µM; active compounds read high; 1 = vehicle control, 0 substrate-free wells
Among all 190,000 compounds or so, about 10 (0.005%) were called active. These entries were drawn from the full list.
Items are presented alongside their recorded activation factor.
Reply: number alone, nothing else.

// known answers, use as guide
> print(dat)
                                   compound     assay.endpoint  experimental.value
1     CN(C)/C=C(/C(=O)c1ccccc1Cl)S(C)(=O)=O  activation factor                   1
2    COc1ccc(-c2cc(C(=O)NCCCn3ccnc3)no2)cc1  activation factor                   1
3  COC(=O)C1=C(N)Oc2c(oc(CO)cc2=O)C1c1c(F)cccc1Cl (configuration not stated)  activation factor                 1.1
4           O=C1CCC/C(=N\NC(=O)NC2CCCCC2)C1  activation factor                 0.8
5  O=C(/C=C/c1ccccc1)Oc1coc(CSc2ncccn2)cc1=O  activation factor                   1
6  COc1ccc(OC)c(-n2c(=S)[nH]c3cc(C(=O)N4CCCCC4)ccc3c2=O)c1  activation factor                   1

Suppose we examine the compound O=C(CCNC(=O)Cn1ccc2ccccc2c1=O)NCCC1=CCCCC1 ; what activation factor value has been reported? 1

Which measured activation factor value corresponds to CCOC(=O)C1CCN(S(=O)(=O)c2cc(F)ccc2OC)CC1 ? 1

I have this compound here, CCCCC1S/C(=N/N=C/c2cccs2)NC1=O (configuration not stated) , and I need its recorded activation factor. 1.3

What does the record list as activation factor for Cc1cccc(C)c1NC(=O)C1(N(C(=O)c2ccccn2)c2ccc(O)cc2)CCCCC1 ? 0.9

----------
test system: Mannose-6-phosphate isomerase (Homo sapiens) (UniProt P34949)
assay overview: MPI enzyme activity enhancement – biochemical, fluorescence intensity, near-Km mannose 6-phosphate, primary screen (AID 1214)
setup conditions: purified human PMI, coupled resazurin fluorescence, 20 min; at 20 µM; active compounds read high; 1 = vehicle control, 0 substrate-free wells
Hit rate of the full screen: of about 190,000 compounds, about 10 (0.005%) were called active. A selection follows.
activation factor overview
Output spec: single numeric token, no unit.

Could you tell me which activation factor is on file for Cc1cc2oc(C(=O)Nc3c(C)n(C)n(-c4ccccc4)c3=O)c(C)c2cc1Cl ? 1.1

Would you mind telling me what activation factor value was observed for CCOC(=O)C1=C(C)OC(N)=C(C#N)C1c1cncc(-c2ccc(F)cc2)c1 (centres undefined) ? 1.1

Value lookup for activation factor; key = COc1ccc(Cl)cc1NC(=O)NC(C)C(C)(C)C (centres undefined) 0.9

Request the reported activation factor associated with O=C1CS(=O)CN1c1ccc(Oc2ccccc2)cc1 (centres undefined) 1

----------
test system: Mannose-6-phosphate isomerase (Homo sapiens) (UniProt P34949)
assay overview: MPI enzyme activity enhancement – biochemical, fluorescence intensity, near-Km mannose 6-phosphate, primary screen (AID 1214)
setup conditions: purified human PMI, coupled resazurin fluorescence, 20 min; at 20 µM; active compounds read high; 1 = vehicle control, 0 substrate-free wells
Out of some 190,000 compounds screened, about 10 (0.005%) were called active. These entries were drawn from the full list.
# activation factor per entry
// return just the number, without any unit appended

> print(dat)
                                   molecule     assay.endpoint  experimental.value
1  CCC1CCCCN1C(=O)CSc1nc(C)cc(C)n1 (centres undefined)  activation factor                   1
2  O=C(NCCN1C(=O)S/C(=C\c2cccnc2)C1=O)c1cccc(OC(F)F)c1  activation factor                 0.9
3        C=CCOc1c(Br)cc(/C=N\n2nnnc2N)cc1OC  activation factor                 1.1
4  CNc1nc(Nc2ccc(C)c(Cl)c2)nc(N)c1[N+](=O)[O-]  activation factor                 0.9
5  CCOc1ccc(-n2c(SCC(=O)NC3CCS(=O)(=O)C3)nnc2-c2cccnc2)cc1 (centres undefined)  activation factor                   1
6      Cc1cccc(C2=N/C(=C/c3cccs3)C(=O)O2)c1  activation factor                   1
7    Cc1ccc(CN2CCN(/N=C/c3cccnc3)CC2)c(C)c1  activation factor                 1.1
8  O=C(CSc1ccc([N+](=O)[O-])cn1)Nc1ccc(N2CCOCC2)c(Cl)c1  activation factor                   1

# query: activation factor of entry OCCC1CN(Cc2ccc3nsnc3c2)CCN1C1CCCCC1 (centres undefined) 0.9

The measured values listed here are drawn from PubChem BioAssay AID1214.
